Values were extracted from the supplement of paper PMC12494721.

Measured fold change of Cadaverine concentration of individual entries
System: Klebsiella aerogenes DSM 30053
Experiment: fold change of Cadaverine concentration vs plate DMSO controls (fold change (ratio)); higher = more amine produced, active = hit call of the paper (significant change in both replicates, either direction)
Details: incubation time: 27 h, anaerobic, 37 °C
Structures can show the parent of a compound that is named as a salt.
measured.attribute: fold change of Cadaverine concentration

> print(dat)
                                   compound  measurement
1  C[C@]12CC[C@H]3C(=CCc4cc(O)ccc43)[C@@H]1CCC2=O [Equilin] (20 µM)        0.978
2  CNCCC=C1c2ccccc2CCc2ccccc21 [Nortriptyline hydrochloride] (20 µM)        0.989
3  CCCCC(CC)CN1C(=O)[C@@H]2[C@H](C1=O)[C@@H]1C=C[C@H]2C1 (mixture of isomers) (20 µM)            1
4  CCCc1ncc(C[n+]2ccccc2C)c(N)n1 [Amprolium hydrochloride] (20 µM)         1.03

====

Test system: Ruminococcus gnavus DSM 108212
Test: fold change of 2-Phenylethylamine concentration vs plate DMSO controls (fold change (ratio)); higher = more amine produced, active = hit call of the paper (significant change in both replicates, either direction)
Settings: incubation time: 27 h, anaerobic, 37 °C
Structures can show the parent of a compound that is named as a salt.
Use 1 as the dividing line for fold change of 2-Phenylethylamine concentration, with the line itself on the YES side and lower values as NO.

compound	test.system	assigned.class
COc1cc(C(=O)NS(=O)(=O)c2ccccc2C)ccc1Cc1cn(C)c2ccc(NC(=O)OC3CCCC3)cc12 [Zafirlukast] (20 µM)	Ruminococcus gnavus DSM 108212	NO
Fc1ccc([C@@H]2CCNC[C@H]2COc2ccc3c(c2)OCO3)cc1 [Paroxetine hydrochloride] (20 µM)	Ruminococcus gnavus DSM 108212	NO
CCCCC(CC)CN1CN(CC(CC)CCCC)CC(C)(N)C1 (stereo not given) [Hexetidine] (20 µM)	Ruminococcus gnavus DSM 108212	YES
CC(C)C[C@H](NC(=O)[C@@H](O)[C@H](N)Cc1ccccc1)C(=O)O [Ubenimex] (20 µM)	Ruminococcus gnavus DSM 108212	NO
CO/N=C(\C(=O)N[C@@H]1C(=O)N2C(C(=O)O)=C(C[N+]3(C)CCCC3)CS[C@H]12)c1csc(N)n1 [Cefepime hydrochloride] (20 µM)	Ruminococcus gnavus DSM 108212	NO
COC(=O)C1=C(C)NC(C)=C(C(=O)OCCN(C)Cc2ccccc2)C1c1cccc([N+](=O)[O-])c1 (stereo not given) [Nicardipine hydrochloride] (20 µM)	Ruminococcus gnavus DSM 108212	NO
CCOc1cc(CC(=O)N[C@@H](CC(C)C)c2ccccc2N2CCCCC2)ccc1C(=O)O [Repaglinide] (20 µM)	Ruminococcus gnavus DSM 108212	YES
Cn1c(=O)c2c(ncn2CCO)n(C)c1=O [Etofylline] (20 µM)	Ruminococcus gnavus DSM 108212	NO
NS(=O)(=O)c1cc2c(cc1Cl)N=C(CSCc1ccccc1)NS2(=O)=O [Benzthiazide] (20 µM)	Ruminococcus gnavus DSM 108212	NO

====

System: Ruminococcus gnavus DSM 108212
Experiment: fold change of 2-Phenylethylamine concentration vs plate DMSO controls (fold change (ratio)); higher = more amine produced, active = hit call of the paper (significant change in both replicates, either direction);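 for the amine columns active = adjusted P below 0.05 in both replicates with a change the same way and a mean fold change under 0.8 or over 1.25; inactive = the rest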
Conditions: incubation time: 27 h, anaerobic, 37 °C
Where a name gives a salt, the structure may show the parent alone.
Outcomes: active, inactive

molecule	assigned.class
OC(CCN1CCCCC1)(c1ccccc1)C1CC2C=CC1C2 (configuration not stated) [Biperiden hydrochloride] (20 µM)	inactive
CCN1CCN(C(=O)N[C@@H](C(=O)N[C@@H]2C(=O)N3[C@@H]2SC(C)(C)[C@@H]3C(=O)O)c2ccccc2)C(=O)C1=O [Piperacillin sodium salt] (20 µM)	active
OC(CCN1CCCCC1)(c1ccccc1)c1ccccc1 [Pridinol methanesulfonate salt] (20 µM)	inactive
CC(=O)OCC(=O)[C@@]12N=C(C)O[C@@H]1C[C@H]1[C@@H]3CCC4=CC(=O)C=C[C@]4(C)[C@H]3[C@@H](O)C[C@@]12C [Deflazacort] (20 µM)	inactive
C[C@@H](CN1CC(=O)NC(=O)C1)N1CC(=O)NC(=O)C1 [Dexrazoxane hydrochloride] (20 µM)	inactive
CC(C)[C@H]1CC[C@H](C(=O)N[C@H](Cc2ccccc2)C(=O)O)CC1 [Nateglinide] (20 µM)	inactive
CC(=O)c1ccc(S(=O)(=O)NC(=O)NC2CCCCC2)cc1 [Acetohexamide] (20 µM)	inactive

====

System: Klebsiella aerogenes DSM 30053
Test: fold change of Histamine concentration vs plate DMSO controls (fold change (ratio)); higher = more amine produced, active = hit call of the paper (significant change in both replicates, either direction);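 for the amine columns active = adjusted P below 0.05 in both replicates with a change the same way and a mean fold change under 0.8 or over 1.25; inactive = the rest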
Conditions: incubation time: 27 h, anaerobic, 37 °C
Where a name gives a salt, the structure may show the parent alone.
Outcomes: 1.0 for active, 0.0 for inactive

compound	test.system	assigned.class
CC1Cc2ccccc2N1NC(=O)c1ccc(Cl)c(S(N)(=O)=O)c1 (stereo unspecified) [Indapamide] (20 µM)	Klebsiella aerogenes DSM 30053	0.0
CC1(C)S[C@@H]2[C@H](NC(=O)[C@H](N)c3ccccc3)C(=O)N2[C@H]1C(=O)O [Ampicillin sodium salt] (20 µM)	Klebsiella aerogenes DSM 30053	0.0
COC(=O)Nc1nc2cc(Sc3ccccc3)ccc2[nH]1 [Fenbendazole] (20 µM)	Klebsiella aerogenes DSM 30053	0.0
Cc1ccc(NC(=O)c2ccc(CN3CCN(C)CC3)cc2)cc1Nc1nccc(-c2cccnc2)n1 [Imatinib] (20 µM)	Klebsiella aerogenes DSM 30053	0.0
CCC[C@@H]1C[C@@H](C(=O)N[C@@H]([C@H]2O[C@H](SC)[C@H](OP(=O)(O)O)[C@@H](O)[C@H]2O)[C@H](C)Cl)N(C)C1 [Clindamycin Phosphate] (20 µM)	Klebsiella aerogenes DSM 30053	0.0
CC(C)(Oc1ccc(C2CC2(Cl)Cl)cc1)C(=O)O (stereo unspecified) [Ciprofibrate] (20 µM)	Klebsiella aerogenes DSM 30053	0.0
CC1(C)O[C@@H]2C[C@H]3[C@@H]4C[C@H](F)C5=CC(=O)C=C[C@]5(C)[C@H]4[C@@H](O)C[C@]3(C)[C@]2(C(=O)CO)O1 [Flunisolide] (20 µM)	Klebsiella aerogenes DSM 30053	0.0
CCN(CCO)CCCC(C)Nc1ccnc2cc(Cl)ccc12 (stereo unspecified) [Hydroxychloroquine sulfate] (20 µM)	Klebsiella aerogenes DSM 30053	0.0
CCOCCn1c(N2CCCN(C)CC2)nc2ccccc21 [Emedastine difumarate] (20 µM)	Klebsiella aerogenes DSM 30053	0.0
CCCC(=O)Nc1ccc(OCC(O)CNC(C)C)c(C(C)=O)c1 (stereo unspecified) [Acebutolol hydrochloride] (20 µM)	Klebsiella aerogenes DSM 30053	0.0
C/C(=C\C(=O)OCCCCCCCCC(=O)O)C[C@@H]1OC[C@H](C[C@@H]2O[C@H]2[C@@H](C)[C@H](C)O)[C@@H](O)[C@H]1O [Mupirocin] (20 µM)	Klebsiella aerogenes DSM 30053	1.0
CCCCC(CC)CNC(=N)NC(=N)NCCCCCCNC(=N)NC(=N)NCC(CC)CCCC (stereo unspecified) [Alexidine dihydrochloride] (20 µM)	Klebsiella aerogenes DSM 30053	0.0
O=C1NCC2(CCN(CCc3ccccc3)CC2)O1 [Fenspiride hydrochloride] (20 µM)	Klebsiella aerogenes DSM 30053	0.0
COc1c2occc2c(OC)c2c(=O)cc(C)oc12 [Khellin] (20 µM)	Klebsiella aerogenes DSM 30053	0.0
CC(CN(C)C)C(C)(O)Cc1ccc(Cl)cc1 (stereo unspecified) [Clobutinol hydrochloride] (20 µM)	Klebsiella aerogenes DSM 30053	0.0
CN1CCN(CCCN2c3ccccc3Sc3ccc(C(F)(F)F)cc32)CC1 [Trifluoperazine dihydrochloride] (20 µM)	Klebsiella aerogenes DSM 30053	0.0
CC(=O)NS(=O)(=O)c1ccc(N)cc1 [Sulfacetamide sodic hydrate] (20 µM)	Klebsiella aerogenes DSM 30053	0.0
CN(C)c1ccc2nc3ccc(=[N+](C)C)cc-3sc2c1 [Methylene blue] (20 µM)	Klebsiella aerogenes DSM 30053	0.0
COc1c(O)cc2c(c1O)[C@@H]1O[C@H](CO)[C@@H](O)[C@H](O)[C@H]1OC2=O [Bergenin] (20 µM)	Klebsiella aerogenes DSM 30053	0.0
CC(C)(C#N)c1cc(Cn2cncn2)cc(C(C)(C)C#N)c1 [Anastrozole] (20 µM)	Klebsiella aerogenes DSM 30053	0.0
O=c1n(CCCN2CCN(c3cccc(Cl)c3)CC2)nc2ccccn12 [Trazodone hydrochloride] (20 µM)	Klebsiella aerogenes DSM 30053	0.0
COc1ccc(NS(=O)(=O)c2ccc(N)cc2)nn1 [Sulfamethoxypyridazine] (20 µM)	Klebsiella aerogenes DSM 30053	0.0
Oc1c(Cl)cc(Cl)c(Cl)c1Cc1c(O)c(Cl)cc(Cl)c1Cl (20 µM)	Klebsiella aerogenes DSM 30053	0.0
N=C(N)NC(=O)c1nc(Cl)c(N)nc1N [Amiloride hydrochloride dihydrate] (20 µM)	Klebsiella aerogenes DSM 30053	0.0
CCOC(=O)[C@H](CCc1ccccc1)N[C@@H](C)C(=O)N1[C@H](C(=O)O)C[C@@H]2CCC[C@@H]21 [Ramipril] (20 µM)	Klebsiella aerogenes DSM 30053	0.0
O=c1oc2cc(O)ccc2s1 [Tioxolone] (20 µM)	Klebsiella aerogenes DSM 30053	0.0
N=C(N)NCc1cccc(I)c1 [Iobenguane sulfate] (20 µM)	Klebsiella aerogenes DSM 30053	0.0
NC(=O)N1c2ccccc2CC(=O)c2ccccc21 [Oxcarbazepine] (20 µM)	Klebsiella aerogenes DSM 30053	0.0
CC(C)OC(=O)C(C(=O)OC(C)C)=C1SC=CS1 [Malotilate] (20 µM)	Klebsiella aerogenes DSM 30053	0.0
O=C1c2c(O)ccc(O)c2C(=O)c2c(NCCNCCO)ccc(NCCNCCO)c21 [Mitoxantrone dihydrochloride] (20 µM)	Klebsiella aerogenes DSM 30053	0.0
O=C(c1ccc(F)cc1)C1CCN(CCn2c(=O)[nH]c3ccccc3c2=O)CC1 [Ketanserin tartrate hydrate] (20 µM)	Klebsiella aerogenes DSM 30053	0.0
